From: ChEMBL document CHEMBL4270672

// values below are pKi; system is D(2) dopamine receptor (Rattus norvegicus, UniProt P61169)
Sequence (P61169 whole entry): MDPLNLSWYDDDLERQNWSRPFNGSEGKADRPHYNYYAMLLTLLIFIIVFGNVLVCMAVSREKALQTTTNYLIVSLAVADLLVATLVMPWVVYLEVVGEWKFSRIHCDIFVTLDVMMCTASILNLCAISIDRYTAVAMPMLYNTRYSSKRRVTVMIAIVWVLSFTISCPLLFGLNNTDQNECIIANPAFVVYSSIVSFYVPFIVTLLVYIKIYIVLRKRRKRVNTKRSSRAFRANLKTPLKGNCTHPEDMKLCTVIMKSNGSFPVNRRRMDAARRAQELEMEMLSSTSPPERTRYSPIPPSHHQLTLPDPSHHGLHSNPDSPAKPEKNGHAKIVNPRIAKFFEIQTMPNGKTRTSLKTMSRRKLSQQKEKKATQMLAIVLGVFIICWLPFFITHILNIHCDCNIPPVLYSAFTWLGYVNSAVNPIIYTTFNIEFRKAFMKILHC
In simple prose, pKi is minus the logarithm base ten of a concentration in moles per litre.

Entry CC1CC(=O)N2CCCc3cc(CCCCN4CCC(c5noc6cc(F)ccc56)CC4)cc1c32 (configuration not stated) under D(2) dopamine receptor (Rattus norvegicus, UniProt P61169) had pKi of 7.07

Entry "O=C(CN1CCC(c2noc3cc(F)ccc23)CC1)c1cc2c3c(c1)CCC(=O)N3CCC2" under D(2) dopamine receptor (Rattus norvegicus, UniProt P61169) had pKi of 6.05

Entry "O=C(CCN1CCC(c2noc3cc(F)ccc23)CC1)c1cc2c3c(c1)CCC(=O)N3CCC2" under D(2) dopamine receptor (Rattus norvegicus, UniProt P61169) had pKi of 7.24

Entry "O=C(CCCN1CCC(c2noc3cc(F)ccc23)CC1)c1cc2c3c(c1)CCC(=O)N3CCC2" under D(2) dopamine receptor (Rattus norvegicus, UniProt P61169) had pKi of 7.74

Entry "O=C(CCCCN1CCC(c2noc3cc(F)ccc23)CC1)c1cc2c3c(c1)CCN3C(=O)CC2" under D(2) dopamine receptor (Rattus norvegicus, UniProt P61169) had pKi of 8.54

Entry "O=C(CCCCCN1CCC(c2noc3cc(F)ccc23)CC1)c1cc2c3c(c1)CCN3C(=O)CC2" under D(2) dopamine receptor (Rattus norvegicus, UniProt P61169) had pKi of 7.05

Entry "O=C1CCc2cc(CCCCCN3CCC(c4noc5cc(F)ccc45)CC3)cc3c2N1CC3" under D(2) dopamine receptor (Rattus norvegicus, UniProt P61169) had pKi of 7.36

Entry O=C1CCc2cc(C(O)CCCN3CCC(c4noc5cc(F)ccc45)CC3)cc3c2N1CCC3 (configuration not stated) under D(2) dopamine receptor (Rattus norvegicus, UniProt P61169) had pKi of 7.53

====

// values below are Ki; system is UniProt P19327
Sequence (P19327 whole entry): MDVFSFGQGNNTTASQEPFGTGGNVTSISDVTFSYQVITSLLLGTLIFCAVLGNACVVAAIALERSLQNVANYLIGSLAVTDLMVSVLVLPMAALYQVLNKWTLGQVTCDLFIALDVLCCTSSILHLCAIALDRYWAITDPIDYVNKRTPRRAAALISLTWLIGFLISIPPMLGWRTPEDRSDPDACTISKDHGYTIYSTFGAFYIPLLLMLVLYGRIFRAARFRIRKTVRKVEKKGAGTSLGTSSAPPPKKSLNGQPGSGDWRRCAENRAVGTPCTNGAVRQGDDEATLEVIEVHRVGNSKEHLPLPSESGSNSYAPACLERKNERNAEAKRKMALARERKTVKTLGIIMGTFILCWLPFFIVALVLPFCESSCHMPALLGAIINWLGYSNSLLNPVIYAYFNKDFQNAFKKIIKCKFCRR
# output: bare number, implied unit µM

>>> experimental_value("O=C1CCc2cc(C(O)CCN3CCC(c4noc5cc(F)ccc45)CC3)cc3c2N1CCC3 (centres undefined)")
0.0196
>>> experimental_value("O=C(CCN1CCN(c2ccccn2)CC1)c1cc2c3c(c1)CCC(=O)N3CCC2")
1.66
>>> experimental_value("O=C1CCc2cc(CCCN3CCC(c4noc5cc(F)ccc45)CC3)cc3c2N1CCC3")
0.0586
>>> experimental_value("N#Cc1ccc(N2CCN(CCC(=O)c3cc4c5c(c3)CCN5C(=O)CC4)CC2)c(F)c1")
0.474
>>> experimental_value("Cc1cccc(N2CCN(CCCC(=O)c3cc4c5c(c3)CCC(=O)N5CCC4)CC2)c1C")
0.169

Entry "O=C(CCN1CCN(c2ncccn2)CC1)c1cc2c3c(c1)CCC(=O)N3CCC2" under UniProt P19327 had Ki of 1.97

Entry "O=C1CCc2cc(CCCCN3CCC(c4noc5cc(F)ccc45)CC3)cc3c2N1CCC3" under UniProt P19327 had Ki of 0.0691

Entry "O=C(CCN1CCN(c2ccc(Cl)cc2)CC1)c1cc2c3c(c1)CCC(=O)N3CCC2" under UniProt P19327 had Ki of 1.63

====

experiment_notes: Half life in Sprague-Dawley rat at 10 mg/kg, po by LC-MS/MS analysis
Type: ADME, organism-based
setup_conditions: in vivo
endpoint_label: half-life (h)
# output: bare number, implied unit h

// half-life value for "O=C(CCCCN1CCC(c2noc3cc(F)ccc23)CC1)c1cc2c3c(c1)CCN3C(=O)CC2" : 2.02

====

tested_system: D(1A) dopamine receptor (Homo sapiens, UniProt P21728)
Sequence (P21728 whole entry): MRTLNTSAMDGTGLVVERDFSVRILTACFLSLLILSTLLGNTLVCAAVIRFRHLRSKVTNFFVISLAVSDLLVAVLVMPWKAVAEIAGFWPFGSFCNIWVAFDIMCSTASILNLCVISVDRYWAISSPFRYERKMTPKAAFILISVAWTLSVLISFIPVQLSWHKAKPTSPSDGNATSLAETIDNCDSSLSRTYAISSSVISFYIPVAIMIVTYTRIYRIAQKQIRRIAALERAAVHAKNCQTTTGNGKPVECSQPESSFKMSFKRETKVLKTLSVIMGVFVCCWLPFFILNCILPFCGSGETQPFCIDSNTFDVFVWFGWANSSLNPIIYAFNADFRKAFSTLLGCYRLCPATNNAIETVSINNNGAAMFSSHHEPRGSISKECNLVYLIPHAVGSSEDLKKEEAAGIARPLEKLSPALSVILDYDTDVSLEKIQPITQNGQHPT
experiment_notes: Antagonist activity at human dopamine D1 receptor expressed in HEK293T cells assessed as inhibition of dopamine-induced cAMP accumulation preincubated for 15 mins followed by dopamine induction and measured after 30 mins by HTRF assay
endpoint_label: pIC50
In simple prose, pIC50 is minus the logarithm base ten of a concentration in moles per litre.

// pIC50 value for "O=C(CCCCN1CCC(c2noc3cc(F)ccc23)CC1)c1cc2c3c(c1)CCN3C(=O)CC2" : 6.44

====

// values below are Ki; system is D(2) dopamine receptor (Rattus norvegicus)

>>> experimental_value("COc1ccccc1N1CCN(CCC(=O)c2cc3c4c(c2)CCC(=O)N4CCC3)CC1")
"> 2000 nM"

// Ki value for O=C1CCc2cc(C(O)CCN3CCC(c4noc5cc(F)ccc45)CC3)cc3c2N1CC3 (centres undefined) : 19.6 nM

// Ki value for "O=C1CCc2cc(CCCN3CCN(c4cccc(Cl)c4Cl)CC3)cc3c2N1CCC3" : 582 nM

====

// values below are Ki; system is D(2) dopamine receptor (Rattus norvegicus, UniProt P61169)
# output: bare number, implied unit nM

>>> experimental_value("O=C(CCN1CCN(c2nsc3ccccc23)CC1)c1cc2c3c(c1)CCC(=O)N3CCC2")
182
>>> experimental_value("O=C(CCCN1CCN(c2cccc(Cl)c2Cl)CC1)c1cc2c3c(c1)CCN3C(=O)CC2")
104
>>> experimental_value("O=C(CCN1CCN(c2ccccc2)CC1)c1cc2c3c(c1)CCC(=O)N3CCC2")
1760
>>> experimental_value("O=C(CCN1CCN(c2cccc(Cl)c2Cl)CC1)c1cc2c3c(c1)CCC(=O)N3CCC2")
1220
>>> experimental_value("O=C(CCN1CCN(c2nsc3ccccc23)CC1)c1cc2c3c(c1)CCN3C(=O)CC2")
88.8

Entry O=C1CCc2cc(C(O)CCCCN3CCC(c4noc5cc(F)ccc45)CC3)cc3c2N1CC3 (stereo unspecified) under D(2) dopamine receptor (Rattus norvegicus, UniProt P61169) had Ki of 8.4

Entry "O=C1CCc2cc(CCCN3CCC(c4noc5cc(F)ccc45)CC3)cc3c2N1CCC3" under D(2) dopamine receptor (Rattus norvegicus, UniProt P61169) had Ki of 44.2

Entry "O=C(CCCN1CCC(c2noc3cc(F)ccc23)CC1)c1cc2c3c(c1F)CCN3C(=O)CC2" under D(2) dopamine receptor (Rattus norvegicus, UniProt P61169) had Ki of 18.3

Entry "Cc1cccc(N2CCN(CCCC(=O)c3cc4c5c(c3)CCC(=O)N5CCC4)CC2)c1C" under D(2) dopamine receptor (Rattus norvegicus, UniProt P61169) had Ki of 185

Entry "O=C1CCc2cc(CCCCN3CCN(c4nsc5ccccc45)CC3)cc3c2N1CCC3" under D(2) dopamine receptor (Rattus norvegicus, UniProt P61169) had Ki of 154

Entry "O=C(CCCN1CCC(c2noc3cc(F)ccc23)CC1)c1cc2c3c(c1)CCN3C(=O)CC2" under D(2) dopamine receptor (Rattus norvegicus, UniProt P61169) had Ki of 10.3
